Reference source: patent US20230023009A1

# assay system: KRAS G12C protein (Homo sapiens, UniProt P01116, G12C)
# Sequence (P01116 1-188 isoform P01116-2 G12C): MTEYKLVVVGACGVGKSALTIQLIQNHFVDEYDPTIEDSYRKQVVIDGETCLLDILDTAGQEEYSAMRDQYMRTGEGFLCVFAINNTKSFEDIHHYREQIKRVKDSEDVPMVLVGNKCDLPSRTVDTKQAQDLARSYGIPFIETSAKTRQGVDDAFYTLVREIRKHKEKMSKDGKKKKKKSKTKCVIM
# protocol notes: Nucleotide exchange assay (Method III, KRAS G12C/Raf-RBD TR-FRET)
# setup conditions: SOS1-mediated exchange of GDP for GTP, 18 hr compound incubation
pIC50: −log10 of the molar value.
measure name: pIC50

# annotated cases, reported pIC50 shown
molecule	pIC50
C=CC(=O)N1CCN(c2nc(OC[C@@H]3CCCN3C)nc3c2COC(c2cccc4cccc(Cl)c24)C3)CC1 (single isomer, unassigned) [40 (Isomer B)]	≤ 5.52
C=C(F)C(=O)N1CCN(c2nc(OC[C@@H]3CCCN3C)nc3c2COC(c2cccc4cccc(Cl)c24)C3)[C@@H](C)C1 (single isomer, unassigned) [44 (Isomer B)]	5.52 to 6.52
C=C(F)C(=O)N1CCN(c2nc(OC[C@@H]3CCCN3C)nc3c2COC(c2cccc4cccc(Cl)c24)C3(C)C)C[C@@H]1CC#N (single isomer, unassigned) [258 (Isomer A)]	≤ 5.52
C=CC(=O)N1CCN(c2nc(OC[C@@H]3CCCN3C)nc3c2OCC(c2cccc4cccc(Cl)c24)O3)CC1 (single isomer, unassigned) [135 (Isomer A)]	≤ 5.52
C=C(Cl)C(=O)N1CCN(c2nc(OC[C@@H]3CCCN3C)nc3c2COC(c2cccc4cccc(Cl)c24)C3)C[C@@H]1CC#N (single isomer, unassigned) [239 (Isomer A)]	≤ 5.52

Report pIC50 for C=C(F)C(=O)N1CCN(c2nc(OC3CN(C)CC3C)nc3c2COC(c2cccc4cccc(Cl)c24)C3)C[C@@H]1CC#N (single isomer, unassigned) [272 (Isomer D)] please. 5.52 to 6.52

Let us now turn to C=C(F)C(=O)N1[C@H](C)CN(c2nc(OC[C@@H]3CCCN3C)nc3c2COC(c2cccc4cccc(Cl)c24)C3)C[C@@H]1C (single isomer, unassigned) [237 (Isomer B)] ≤ 5.52

Likewise for C=C(F)C(=O)N1CCN(c2nc(OC[C@@H]3CCCN3C)nc3c2COC(c2cccc4cccc(Cl)c24)C3)CC1(C)C (single isomer, unassigned) [238 (Isomer A)] ? ≤ 5.52

Now consider C=C(F)C(=O)N1CCN(c2nc(OC[C@@H]3CCCN3C)nc3c2COC(c2c(C)ccc4[nH]ncc24)C3)C[C@@H]1CC#N (single isomer, unassigned) [52 (Isomer A)] . 5.52 to 6.52

Try this molecule next: C=C(F)C(=O)N1CCN(c2nc(NCCC(=O)N(C)C)nc3c2COC(c2cccc4cccc(Cl)c24)C3)C[C@@H]1CC#N (single isomer, unassigned) [232 (Isomer B)] ≤ 5.52

And the next one, C=C(F)C(=O)N1C[C@H](C)N(c2nc(OC[C@@H]3CCCN3C)nc3c2COC(c2cccc4cccc(Cl)c24)C3)C[C@H]1C (single isomer, unassigned) [235 (Isomer A)] ? ≤ 5.52

And C=C(F)C(=O)N1CCN(c2nc(OCC34CCCN3CCC4)nc3c2COC(c2cccc4cccc(Cl)c24)C3)C[C@@H]1CC#N (single isomer, unassigned) [266 (Isomer B)] ? ≥ 6.52

Query C=C(F)C(=O)N1CCN(c2nc(OC[C@@H]3CCCN3C)nc3c2OCC(c2cccc4cccc(Cl)c24)O3)C[C@@H]1CC#N (single isomer, unassigned) [64 (Isomer A)] next 5.52 to 6.52

Similarly, `C=C(F)C(=O)N1CCN(c2nc(OC[C@@H]3CCCN3C)nc3c2CC=C(c2cccc4cccc(Cl)c24)O3)CC1` ? ≤ 5.52

For C=C(F)C(=O)N1CCN(c2nc(OC[C@@H]3CCCN3C)nc3c2CO[C@H](c2cccc4cccc(Cl)c24)C3)C[C@@H]1CC#N (single isomer, unassigned) [43 (Isomer A)] then? ≤ 5.52
